A collection of molecules and their measured pKi
# System Under Test: Human thymidylate synthase (TS) (Homo sapiens, UniProt P04818)
# Sequence (P04818 whole entry): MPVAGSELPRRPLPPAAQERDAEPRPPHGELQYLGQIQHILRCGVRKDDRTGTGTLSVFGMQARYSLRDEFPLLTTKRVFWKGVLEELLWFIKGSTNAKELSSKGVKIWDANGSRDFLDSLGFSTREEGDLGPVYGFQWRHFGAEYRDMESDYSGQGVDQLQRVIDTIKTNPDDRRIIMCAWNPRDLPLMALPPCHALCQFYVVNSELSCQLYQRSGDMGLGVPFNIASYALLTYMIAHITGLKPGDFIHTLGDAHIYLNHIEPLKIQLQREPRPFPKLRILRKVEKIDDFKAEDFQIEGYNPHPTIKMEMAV
# Protocol Text: Thymidylate synthase inhibition constants against 5,10-methylene-tetrahydrofolate
# Format: biochemical
pKi: −log10 of the molar value.
Endpoint Name: pKi

1) C#CCN(Cc1ccc2nc(C)nc(O)c2c1)c1ccc(C#N)c(Cl)c1 [3-Cl, 4-CN] | 7.06
2) C#CCN(Cc1ccc2nc(C)[nH]c(=O)c2c1)c1ccc(C#N)c(C(F)(F)F)c1 [3-CF3,4-CN] | 7.09
